log10(TGI) reference
tested on: NCI-H460 lung; experiment: NCI tumour cell line growth inhibition, 48 h
Measured Parameter: log10(TGI) (log10 of the value in µM)

>  <Compound>
N#CCCn1[nH]c(=O)c(Cl)c(Cl)c1=O

>  <log10(TGI)>
1.45

$$$$
>  <Compound>
CCN1CCN(c2nc(C)cc(N(CCCNc3ccnc4cc(Cl)ccc34)Cc3ccc4c(c3)OCO4)n2)CC1

>  <log10(TGI)>
0.55

$$$$
>  <Compound>
O=C(Nc1ccc(Oc2ccc(F)cc2)cc1)[C@@H]1C[C@@H](Cc2ccc(F)cc2)CN1C(=O)Cn1ccnn1

>  <log10(TGI)>
1.33

$$$$
>  <Compound>
COc1ccc(C(O)c2cc3c(N)c(C(=O)Nc4ccc(Cl)cc4)sc3nc2C)cc1 (stereo not drawn)

>  <log10(TGI)>
0.80

$$$$
>  <Compound>
Clc1nccc2c(-c3csc(-c4c[nH]c5ccc(Br)cc45)n3)c[nH]c12

>  <log10(TGI)>
0.66

$$$$
>  <Compound>
C#Cc1cccc(Nc2ncnc3cc(NC(=O)CCl)ccc23)c1

>  <log10(TGI)>
0.82

$$$$
>  <Compound>
C=C1C[C@H]2C=Nc3cc(OCCCOc4cc5c(cc4OC)C(=O)N4CC(=C)C[C@H]4C=N5)c(OC)cc3C(=O)N2C1

>  <log10(TGI)>
-0.26

$$$$
>  <Compound>
O=C1NC(=S)S/C1=C\c1cn(-c2ccccc2)nc1-c1ccccc1

>  <log10(TGI)>
1.28

$$$$

====

tested on: SN12C renal; test: NCI tumour cell line growth inhibition, 48 h
Where a SMILES comes first, the peptide text is derived from it. The star is where a group is joined. Trt = c1ccc(C(c2ccccc2)(c2ccccc2)*)cc1; Cbz = O=C(OCc1ccccc1)*
TGI reference

>  <Molecule>
CC1(C)C2CCC3CC(CCC#N)CCC3C21C#N (stereo unspecified)

>  <TGI>
> 100 µM

$$$$
>  <Molecule>
COC1C2C[C@@H](O)CCC2C(C(=O)OCCl)C[C@H]1O (stereo partly specified)

>  <TGI>
> 100 µM

$$$$
>  <Molecule>
CCN(CC)CCCNc1c2c(Cl)cc(Cl)cc2nc2nc(=O)[nH]c(C)c12

>  <TGI>
> 100 µM

$$$$
>  <Molecule>
Nc1nc2c(N)cc(C(F)(F)F)cc2nc1-c1ccccc1

>  <TGI>
> 100 µM

$$$$
>  <Molecule>
COc1ccc2nc3cc(Cl)ccc3c(NCCCNCCO)c2c1

>  <TGI>
2.48 µM

$$$$
>  <Molecule>
COC(=O)C1CC2C=CC=CC(=O)C2(C)C1 (stereo unspecified)

>  <TGI>
> 100 µM

$$$$
>  <Molecule>
C=C1C(=O)O[C@H]2[C@H]1CC/C(COC(=O)c1cc(OC)c(OC)c(OC)c1)=C\CC[C@@]1(C)O[C@@H]21

>  <TGI>
3.12 µM

$$$$
>  <Molecule>
Cc1cc(=O)oc2ccc(OC/C=C3\CCC(=O)O3)cc12

>  <TGI>
31.4 µM

$$$$
>  <Molecule>
C=CCCC1(O)C(O)C(CO)O[C@H](O[C@@]2(CO)OC(CO)C(O)C2O)C1O (stereo partly specified)

>  <TGI>
> 100 µM

$$$$
>  <Molecule>
CC(C)/C=C1\CCC(CN(C)C)C1=O (stereo unspecified)

>  <TGI>
16.3 µM

$$$$
>  <Molecule>
COc1cc(/C=C/C(=O)c2cccc(-n3cc(-c4cc(OC)c(OC)c(OC)c4)[nH]c3=O)c2)cc(OC)c1OC

>  <TGI>
18.2 µM

$$$$
>  <Molecule>
O=[N+]([O-])C(=C/c1ccccc1)/C(=C\c1ccccc1)[N+](=O)[O-]

>  <TGI>
49.4 µM

$$$$
>  <Molecule>
O=[N+]([O-])c1ccc(C2=Nc3ccccc3S(=O)C(c3ccccc3)C2)cc1 (stereo unspecified)

>  <TGI>
53.7 µM

$$$$
>  <Molecule>
O=C(O)c1nc2ccccc2nc1Nc1ccc(Cl)c(Cl)c1

>  <TGI>
> 100 µM

$$$$
>  <Molecule>
Oc1ccc(Cl)cc1C(c1cc(Cl)ccc1O)C(Cl)(Cl)Cl

>  <TGI>
3.28 µM

$$$$
>  <Molecule>
COC(=O)C(CO)NC(=O)C(CSC(c1ccccc1)(c1ccccc1)c1ccccc1)NC(=O)OCc1ccccc1 (stereo unspecified) (Cbz-Cys(Trt)-Ser-OMe; configuration not given here)

>  <TGI>
27.3 µM

$$$$
>  <Molecule>
N#CCCn1[nH]c(=O)c(Cl)c(Cl)c1=O

>  <TGI>
32.5 µM

$$$$
>  <Molecule>
CCOC(=O)N/N=C(/N)c1cccc(Br)c1

>  <TGI>
> 100 µM

$$$$
>  <Molecule>
CCOC(=O)C(NC(=O)OCc1ccccc1)C(=O)O (stereo unspecified)

>  <TGI>
> 100 µM

$$$$
>  <Molecule>
CSC1=NC(=Nc2c(C)cccc2C)C2(CCC(C(C)(C)C)CC2)N1c1ccc(Cl)cc1 (stereo unspecified)

>  <TGI>
> 100 µM

$$$$
>  <Molecule>
CC(=O)CCCCn1c(=O)c2c(nc(Br)n2C)n(C)c1=O

>  <TGI>
> 100 µM

$$$$
